B1: Chromodomain-helicase-DNA-binding protein 4, residues 623 to 675; numbered along this chain, Q14839 (parent)
chain: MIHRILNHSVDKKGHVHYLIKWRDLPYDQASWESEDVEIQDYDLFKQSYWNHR

# Variants of: B1
# procedure.summary: abundance fitness (aPCA) (normalised: wild type 0, dead -1); higher = more abundant; growth selection in yeast, the domain comes from the species named
# assay.setup: Homo sapiens
reported.property: abundance fitness
Quick one: just the number, no unit, thanks!

Known results for variants:
# mutant.name, abundance fitness
data = [
    ("K21P", -0.855),
    ("Y18R", -1.05),
]

Dear colleague, I am looking for the recorded abundance fitness of the following variant: `L19C` -0.924

Subsequent entry: `A30I` 0.111

Ok, now `K13N` -0.123

How about this variant: `I20E` -0.842

Param item: `K21A` -0.01

Then `V16W` ? -0.715

Moving on to `Y27P` 0.018
